- Test system: Mus musculus
- assayRemarks: Neurotoxicity in Albino mouse at 300 mg/kg, ip after 0.5 hrs by RotoRod test
- Format: toxicity, organism-based
- Set-up: dose 300 mg/kg, route intraperitoneal
- reportedConditions: in vivo
assayMetric: Activity

[
  {
    "lineNotation": "CCCCNS(=O)(=O)NC(=O)OC(C)(C)C",
    "assayMetric": "Activity",
    "testResult": "Non-toxic"
  },
  {
    "lineNotation": "CCCCN(CCCC)S(N)(=O)=O",
    "assayMetric": "Activity",
    "testResult": "Toxic"
  },
  {
    "lineNotation": "CCCN(CCC)S(=O)(=O)NC(=O)OC(C)(C)C",
    "assayMetric": "Activity",
    "testResult": "Non-toxic"
  },
  {
    "lineNotation": "CC(C)(C)OC(=O)NS(=O)(=O)NCc1ccccc1",
    "assayMetric": "Activity",
    "testResult": "Non-toxic"
  },
  {
    "lineNotation": "CCCCN(CCCC)S(=O)(=O)N(CCCC)CCCC",
    "assayMetric": "Activity",
    "testResult": "Non-toxic"
  },
  {
    "lineNotation": "NS(=O)(=O)NCc1ccccc1",
    "assayMetric": "Activity",
    "testResult": "Non-toxic"
  },
  {
    "lineNotation": "CCCCNS(N)(=O)=O",
    "assayMetric": "Activity",
    "testResult": "Toxic"
  },
  {
    "lineNotation": "O=S(=O)(NC1CC1)NC1CC1",
    "assayMetric": "Activity",
    "testResult": "Non-toxic"
  },
  {
    "lineNotation": "CCCN(CCC)S(=O)(=O)N(CCC)CCC",
    "assayMetric": "Activity",
    "testResult": "Non-toxic"
  },
  {
    "lineNotation": "CCCCN(CCCC)S(=O)(=O)NC(=O)OC(C)(C)C",
    "assayMetric": "Activity",
    "testResult": "Non-toxic"
  }
]

----------
- assayRemarks: Neurotoxicity in intraperitoneally dosed Albino mouse by RotoRod test
- Assay type: toxicity, organism-based
- reportedConditions: Albino, in vivo, ip
In this section, each of the molecules is paired with its reported TD50.

[
  {
    "lineNotation": "O=S(=O)(NC1CCCCC1)NC1CCCCC1",
    "TD50": "> 385 µmol/kg"
  },
  {
    "lineNotation": "CCCCNS(=O)(=O)NCCCC",
    "TD50": "> 481 µmol/kg"
  },
  {
    "lineNotation": "O=S(=O)(NCc1ccccc1)NCc1ccccc1",
    "TD50": "> 362 µmol/kg"
  },
  {
    "lineNotation": "NS(=O)(=O)NCc1ccccc1",
    "TD50": "1420 µmol/kg"
  }
]

----------
- Species: Mus musculus
- assayRemarks: Protective index, ratio of TD50 against Albino mouse to ED50 for Albino mouse
- Type: functional

[
  {
    "compound": "O=S(=O)(NCc1ccccc1)NCc1ccccc1 [BENZYL(BENZYLSULFAMOYL)AMINE]",
    "PI": ">1.5"
  },
  {
    "compound": "O=S(=O)(NC1CCCCC1)NC1CCCCC1",
    "PI": ">2.5"
  },
  {
    "compound": "NS(=O)(=O)NCc1ccccc1",
    "PI": 5.9
  },
  {
    "compound": "CCCCNS(=O)(=O)NCCCC [BUTYL(BUTYLSULFAMOYL)AMINE]",
    "PI": ">1.6"
  }
]
